Each recorded value in this set is attributed to PubChem BioAssay.

# procedure summary: endothelial E-selectin expression blockers – imaging, HUVEC, immunofluorescence, MLSMR starter and 10KST1 sets, primary screen (AID 487);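 further: signal is fraction of cell area covered by stained E-selectin grains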
# run conditions: HUVEC TNFalpha-induced E-selectin immunofluorescence imaging, at 2 µM; active compounds read high
We use -20% as the dividing line for inhibition: on or above the line is rule met, below is rule not met.

{"compound": "COc1ccc(C2c3c(oc4ccccc4c3=O)C(=O)N2c2ccc(C)cn2)cc1OC (stereo not given)", "group label": "rule not met"}
{"compound": "CC(C)CCNc1cc(=O)n(C)c(=O)n1C", "group label": "rule met"}
{"compound": "O=C(Nc1ccccc1N1CCOCC1)c1ccc2ccccc2n1", "group label": "rule met"}
{"compound": "Cc1cccc(Nc2ncc3c(n2)CC(c2ccco2)CC3=O)c1 (stereo not given)", "group label": "rule not met"}
{"compound": "CCSc1ccccc1C(=O)Nc1cccc(OC)c1", "group label": "rule met"}
{"compound": "Cc1cc(C)c2c(n1)nn1c(N3CCN(c4cccc(Cl)c4)CC3)cc(C)nc21", "group label": "rule not met"}
{"compound": "COc1cccc(OC)c1OCCCSc1nc(C)cc(=O)[nH]1", "group label": "rule met"}
{"compound": "Cc1c(C(=O)N2CCCC2)sc(NC(=O)c2cccs2)c1C#N", "group label": "rule not met"}
{"compound": "Cc1cccc(OCCCc2c(C)n[nH]c2C)c1", "group label": "rule met"}
{"compound": "C=C(C)Cn1c(N2CCN(CC)CC2)nc2c1c(=O)[nH]c(=O)n2C", "group label": "rule met"}

Confirm if inhibition reported for the compound CCOC(=O)CC(=O)Nc1c(C)cc(C)cc1C is -20% or above.
rule met

Confirm if inhibition reported for the compound CCOc1ccc2nc(SCC(=O)N3CCCCCC3)c(C#N)cc2c1 is -20% or above.
rule not met

Confirm if inhibition reported for the compound CCC(=O)N1CCc2cc(S(=O)(=O)CCC(=O)Nc3ccc(F)c(F)c3)ccc21 is -20% or above.
rule not met

* * *

# procedure summary: TLR3 IRF3 reporter activation blockers – cell-based, poly I:C stimulus, luciferase, 10K MLSCN set, primary screen (AID 602277)
# run conditions: HEK293-TLR3 RL24 IRF3 luciferase reporter, at 10 µM, active compounds read high
measured metric: inhibition (%)
Give bare numbers, in %.

{"compound": "COc1ccccc1CNC(=O)CCNC(=O)Cn1ccc2ccccc2c1=O", "measured metric": "inhibition", "obs value": 6.29}

Report inhibition for each item below.
1. CC(NC(=O)C1CC1)C(c1cccs1)N1CCN(c2ccccc2)CC1 (configuration not stated)
2. O=C(CN(CCc1ccccc1)C(=O)CN1C(=O)COc2ccccc21)NCc1ccco1
3. Cc1csc(SCCn2c(N3CCCC3)nc3c2c(=O)[nH]c(=O)n3C)n1
4. C=CCc1cccc2cc(C(=O)NCc3cccnc3)c(=O)oc12

1: 23.6; 2: 23.2; 3: 16.5; 4: 20.3

Report inhibition for each item below.
1. C=C(C)Cn1c(N2CCN(CC)CC2)nc2c1c(=O)[nH]c(=O)n2C
2. Cc1cccc(Cc2nnc(NC(=O)c3cccc(S(=O)(=O)N4CCOCC4)c3)s2)c1
3. COc1cc(C2N=C(c3ccccc3)NO2)cc(Br)c1O (configuration not stated)
4. Cc1ccc(C(=O)N2CCN(C(=O)c3ccc(C)c(C)c3)C(C)C2)cc1C (configuration not stated)
5. CC1CCN(C(=O)CSc2nnc(Cc3cc(=O)[nH]c(=O)[nH]3)n2-c2ccc(Cl)cc2)CC1

25.8
30.6
-15.1
22.7
16.5

Report inhibition for each item below.
1. c1ccc(CCn2nnnc2CN2CCN(C3CCCC3)CC2)cc1
2. COc1cc(NC(=O)Nc2cccc(Cl)c2)c(OC)cc1NC(=O)CN1CCCCC1
3. O=C(NCCCCNC(=O)c1cccnc1)c1cccnc1
4. Cc1nc2ccc(CCO)cc2s1
5. COc1ccc2cc3cc(C(=O)NCC4CCCO4)oc3nc2c1 (configuration not stated)

[20.4, -1.73, 26.9, 4.05, -36.3]

Report inhibition for each item below.
1. COc1ccc(CNc2oc(-c3ccccc3)nc2C#N)cc1
2. COC(=O)Cc1cc(=O)[nH]c(Nc2nc3ccccc3o2)n1
3. CC(C)OC(=O)CSc1nnc(-c2ccc(O)cc2)n1Cc1ccccc1
4. COc1ccc(Cn2nnnc2C(c2cccs2)N2CCOCC2)cc1 (configuration not stated)
5. C#CCNc1c(C)c(C)nc2ncnn12
6. CCN(CC)S(=O)(=O)c1ccc(S(=O)(=O)N(Cc2ccccn2)Cc2ccco2)cc1
7. COc1cc(C(=O)Nc2ccc(-n3cnnn3)c(C)c2)cc(OC)c1OC
8. CCOc1ccc(S(=O)(=O)N2CCN(c3ccc(C)cc3C)CC2)cc1

1. -35.1
2. -64.7
3. 16.8
4. -0.428
5. 9.86
6. 18.5
7. 20.8
8. 11.7
